Provide the recorded DC50 for the entries that follow.
molecular target: HiBit-BRG1 fusion protein in stable HeLa cell line expressing HiBit-BRG1 and LgBit (Homo sapiens); construct: expressed in transfected cells; assay: HiBiT-BRG1 cell-based degradation assay (Nano-Glo HiBiT, 24 h); conditions: HeLa HiBit-BRG1/LgBit cells, read-out: BRMG1 HiBit Degradation IC50
Sequence (P51532 whole entry, the tested form may be a part): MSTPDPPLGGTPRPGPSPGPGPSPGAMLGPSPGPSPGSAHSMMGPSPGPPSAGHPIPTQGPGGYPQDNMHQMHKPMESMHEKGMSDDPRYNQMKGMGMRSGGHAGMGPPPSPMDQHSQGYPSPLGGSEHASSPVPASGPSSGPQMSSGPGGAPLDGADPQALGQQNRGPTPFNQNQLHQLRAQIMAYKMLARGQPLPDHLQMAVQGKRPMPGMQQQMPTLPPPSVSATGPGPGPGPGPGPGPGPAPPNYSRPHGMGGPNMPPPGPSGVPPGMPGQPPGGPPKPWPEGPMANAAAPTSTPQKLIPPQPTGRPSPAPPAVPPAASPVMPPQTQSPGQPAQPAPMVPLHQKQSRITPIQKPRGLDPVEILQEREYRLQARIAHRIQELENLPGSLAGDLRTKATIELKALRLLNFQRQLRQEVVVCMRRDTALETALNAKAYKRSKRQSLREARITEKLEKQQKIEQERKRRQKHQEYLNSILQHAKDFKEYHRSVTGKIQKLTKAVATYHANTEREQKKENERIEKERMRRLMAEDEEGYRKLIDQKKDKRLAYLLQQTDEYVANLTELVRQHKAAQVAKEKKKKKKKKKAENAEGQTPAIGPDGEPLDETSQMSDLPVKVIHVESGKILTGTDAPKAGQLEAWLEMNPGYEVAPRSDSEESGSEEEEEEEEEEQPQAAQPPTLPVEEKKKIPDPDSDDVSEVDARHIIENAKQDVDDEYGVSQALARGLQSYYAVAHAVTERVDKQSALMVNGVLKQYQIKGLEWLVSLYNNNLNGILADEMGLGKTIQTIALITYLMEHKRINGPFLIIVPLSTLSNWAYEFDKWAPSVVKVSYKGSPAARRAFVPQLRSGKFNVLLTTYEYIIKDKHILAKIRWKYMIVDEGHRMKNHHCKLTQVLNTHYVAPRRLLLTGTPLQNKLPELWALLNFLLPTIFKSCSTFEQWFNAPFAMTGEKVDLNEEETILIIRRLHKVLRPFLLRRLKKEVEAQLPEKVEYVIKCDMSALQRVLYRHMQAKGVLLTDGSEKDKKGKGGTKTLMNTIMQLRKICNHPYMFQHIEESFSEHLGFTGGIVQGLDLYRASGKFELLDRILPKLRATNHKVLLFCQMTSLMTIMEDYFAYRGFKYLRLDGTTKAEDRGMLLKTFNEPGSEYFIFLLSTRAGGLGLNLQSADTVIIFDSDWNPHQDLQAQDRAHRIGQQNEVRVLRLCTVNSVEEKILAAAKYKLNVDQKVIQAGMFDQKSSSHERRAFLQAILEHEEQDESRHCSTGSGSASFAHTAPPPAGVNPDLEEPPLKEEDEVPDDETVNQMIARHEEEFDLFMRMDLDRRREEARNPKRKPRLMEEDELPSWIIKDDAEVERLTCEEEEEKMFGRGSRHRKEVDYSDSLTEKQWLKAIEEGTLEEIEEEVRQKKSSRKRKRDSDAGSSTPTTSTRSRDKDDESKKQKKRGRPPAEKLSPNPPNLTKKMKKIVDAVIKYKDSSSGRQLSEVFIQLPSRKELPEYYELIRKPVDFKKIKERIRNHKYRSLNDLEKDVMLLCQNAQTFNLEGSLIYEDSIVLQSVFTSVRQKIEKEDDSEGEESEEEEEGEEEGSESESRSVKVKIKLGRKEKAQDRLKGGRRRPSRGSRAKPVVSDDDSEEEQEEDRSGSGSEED

Incoming: Report DC50, nothing else, for this molecule: CC(C)C(C(=O)N1C[C@H](O)C[C@H]1C(=O)N[C@@H](C)c1ccc(C#N)cc1)c1cc(N2CC3(CN(c4ccc5cc(-c6ccccc6O)nnc5c4)C3)C2)no1 (some centres unmarked)
Outgoing: > 10 nM

Incoming: Report DC50, nothing else, for this molecule: Cc1ncsc1-c1ccc([C@H](C)NC(=O)[C@@H]2C[C@@H](O)CN2C(=O)[C@@H](c2cc(N3CC4(CC(c5cc6nnc(-c7ccccc7O)cc6cc5C5CC5)C4)C3)no2)C(C)C)cc1
Outgoing: < 10 nM

Incoming: Report DC50, nothing else, for this molecule: Cc1ncsc1-c1ccc([C@H](C)NC(=O)[C@@H]2C[C@@H](O)CN2C(=O)[C@@H](c2cc(N3CC4(C3)CN(c3cc5nnc(-c6ccccc6O)cc5cc3C3CC3)C4)no2)C(C)C)cc1
Outgoing: < 10 nM

Incoming: Report DC50, nothing else, for this molecule: Cc1ncsc1-c1ccc([C@H](C)NC(=O)[C@@H]2C[C@@H](O)CN2C(=O)[C@@H](c2cc(-c3cnc(N4CCC5(CC4)CC(c4ccc6nnc(-c7ccccc7O)cc6c4)C5)nc3)no2)C(C)C)cc1
Outgoing: < 10 nM

Incoming: Report DC50, nothing else, for this molecule: Cc1ncsc1-c1ccc([C@H](C)NC(=O)[C@@H]2C[C@@H](O)CN2C(=O)[C@H](C(C)C)n2cc(N3CCC4(CCN(c5ccc6cc(-c7ccccc7O)nnc6c5)CC4)CC3)nn2)cc1
Outgoing: < 10 nM
